B1: Pistol ribozyme (parent)
chain: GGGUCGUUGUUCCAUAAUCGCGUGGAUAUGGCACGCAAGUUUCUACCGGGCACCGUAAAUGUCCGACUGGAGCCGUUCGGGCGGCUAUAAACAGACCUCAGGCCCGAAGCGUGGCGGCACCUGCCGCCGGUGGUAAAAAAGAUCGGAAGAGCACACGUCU

variants of: B1; assay: aptazyme ON/OFF ratio, guanine; higher = stronger switching; co-transcriptional cleavage with and without guanine
measured endpoint: aptazyme ON/OFF ratio
Please respond with just the number, no unit label.

{"variant notation": "U7G U8G U10A U11C C12G C13G", "aptazyme ON/OFF ratio": 1.11}
{"variant notation": "U7C U8A G9U U11A C13G", "aptazyme ON/OFF ratio": 1.05}
{"variant notation": "U7G U8A U10G U11G C13G", "aptazyme ON/OFF ratio": 1.43}

Task item: Quick one: aptazyme ON/OFF ratio for U8G G9U U11G C12U C13A ?
Reply: 1.13

Task item: Quick one: aptazyme ON/OFF ratio for U10C U11G C12A C13A ?
Reply: 1.27

Task item: Quick one: aptazyme ON/OFF ratio for U7G U8A U10C U11C C13G ?
Reply: 1.05

Task item: Quick one: aptazyme ON/OFF ratio for U7A U8A G9A U10C C12G ?
Reply: 1.05

Task item: Quick one: aptazyme ON/OFF ratio for U7C U8A G9A U10C U11C C12A C13A ?
Reply: 1.03
